# key: entry, value: SPOT intensity
Molecular target: Bem1-1, P29366
Sequence (P29366 55-141): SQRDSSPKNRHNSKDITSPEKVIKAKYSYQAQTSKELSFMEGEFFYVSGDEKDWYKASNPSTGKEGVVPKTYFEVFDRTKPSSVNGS
Assay: SPOT array
Conditions: median of control spots 4282
METRIC: SPOT intensity

> print(dat)
            binder  numeric.readout
1  FSRRQSMDIPSKNRN                7
2  YVRRRPRVRLEPLLS                0
3  KDKKTKPTPPPKPSH                1
4  RSVKRPRRAPRPVVS                3
5  TSFKGRPKPPKTLKH                0
6  MTKTPETSPPKRPMG                0
7  NFLRLLIGLPSQNEL                1

The values you see were collected from paper PMC2756588.
